Experiment: JC-1 mitochondrial signal, unstimulated myeloma cells – cell-based, JC-1 fluorescence, RPMI8226, 24 h, 100 nL compound, profiling panel (AID 1169); also: test concentration not given here
Settings: JC-1 mitochondrial potential fluorescence, higher = more signal
Examples of compounds with documented z-score follow.
Answer with a number only.

As a guide, the following entries are already answered.
# compound, z-score
records = [
    ("C=CCC(OC(C)=O)[C@@H]1[C@@H](N(Cc2ccc(-c3ccccc3)cc2)C(=O)Cc2ccc(OC)cc2)c2cc(OCCCO)ccc2N1C(=O)c1ccc(-c2ccccc2)cc1 (some centres undefined)", 0.298),
    ("CC(C)(C)N1CC=CC23O[C@@H]4C=CCCOC(=O)C4[C@H]2C(=O)N(CCCO)[C@@H]3C1=O (some centres undefined)", 0.846),
    ("COC(=O)[C@@]1(Cc2ccc(OC)cc2)[C@H]2c3cc(C(=O)N(C)C)n(Cc4cc(C)n(C)n4)c3C[C@H]2CN1C(=O)c1ccccc1", 0.534),
]

Field: next compound
## Input May I ask what z-score has been recorded for "CCCCC(=C=CC[C@H](O)c1ccccc1OCCO)C[C@H](O)c1ccccn1" ?
## Output -0.45

* * *

Target: Torsin-1A-interacting protein 2 (Homo sapiens)
Assay: small molecules binding lysate-expressed LULL1 – cell lysate, human LULL1 lysate, 635/667 nm fluorescence, primary screen (AID 1092);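 also: probe is lysate of COS7 cells overexpressing human LULL1; score merges per-feature 667 nm fluorescence with signal-to-noise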
Conditions: small-molecule microarray, hLULL1 lysate binding, 635 nm fluorescence; higher = more signal
Classify by measured composite z-score: 1 if it is equal to or exceeds 2, 0 if it is smaller.

As a guide, the following entries are already answered.
# compound, label_value
rows = [
    ("CCOC(=O)C[C@H]1[C@H](OC(=O)Cc2ccc3c(c2)OCO3)[C@@H](NC(=O)c2ccccc2)c2cc(OCCCO)ccc2N1C(=O)c1ccc2ccccc2n1", 0),
    ("COc1ccc([Si](C)(C)[C@H]2[C@H](CC(=O)N3CCC[C@H]3CO)O[C@@]3(C(=O)N(Cc4ccc(N5C(=O)c6cccc7cccc5c67)cc4)c4ccccc43)[C@@H]2C)cc1", 1),
    ("COc1ccc(C#Cc2ccc3c(c2)[C@]2(C(=O)N3)[C@H](c3ccc(OCCO)cc3)N3[C@H](c4ccccc4)[C@H](c4ccccc4)OC(=O)[C@H]3[C@@H]2C(=O)N2CCN(c3ncccn3)CC2)cc1", 0),
    ("C=C(/C(=C/C[C@@H](OC(=O)c1ccncc1)c1ccccc1OCCO)c1cnc2ccccc2c1)C(C)C", 1),
]

## Input composite z-score >= 2 for "CCCCC(=C=CC[C@H](O)c1ccccc1OCCO)C[C@H](O)c1ccccn1" ?
## Output 0

## Input Next entry: CCCCCCCCCCC(O)C1C=CC2C(=O)NC(=O)C2N1Nc1ccccn1 (configuration not stated)
## Output 0

## Input Next entry: "CCCN1C(=O)[C@@]2(Cc3ccccc3)N=C(c3ccc(OCCCO)cc3)O[C@H]2c2ccccc21"
## Output 1

* * *

Assay: inhibition of PAO1 biofilm formation – strain PAO1, LB-PBS medium, absorbance 600 nm, primary screen (AID 1176); also: test concentration not given here
Conditions: P. aeruginosa PAO1 growth/biofilm, A600, 12 h; higher = more signal
Examples of compounds with documented z-score follow.
Answer with a number only.

## Input May I ask what z-score has been recorded for "O=C1C[C@@](C(=O)O)(c2ccc([N+](=O)[O-])cc2)[C@@H](c2ccc(CO)cc2)N1CC12CC3CC(CC(C3)C1)C2" ?
## Output 0.692

## Input Next entry: C[C@]12C(=O)N(CCCCCO)[C@@H]3C(=O)N(c4ccc(Cl)cc4)CC=CC31O[C@@H]1/C=C\CCCOC(=O)C12 (some centres undefined)
## Output -0.677

## Input Next entry: "C#CCNS(=O)(=O)N(C)C"
## Output -0.218

## Input Next entry: "Cc1ccc(S[C@]2(C(=O)NCCN3CCOCC3)CC(=O)N(C3Cc4ccccc4C3)[C@@H]2c2ccc(CO)cc2)cc1"
## Output 0.0435

* * *

Assay: JC-1 mitochondrial signal, unstimulated HepG2 cells – cell-based, JC-1 fluorescence, 24 h, 100 nL compound, profiling panel (AID 1167); also: test concentration not given here
Conditions: HepG2 mitochondrial potential, higher = more signal
Examples of compounds with documented z-score follow.

## Input May I ask what z-score has been recorded for "CC(C)[Si](C#C[Si](C(C)C)(C(C)C)C(C)C)(O[C@H](C)c1cn(Cc2cccc(Cl)c2)nn1)C(C)C" ?
## Output 1.37

## Input Next entry: "COCCOC(=O)N1C(=O)[C@@]2(c3cc(C#Cc4ccc(OC)cc4)ccc31)[C@H](c1ccc(OCCO)cc1)N1[C@H](c3ccccc3)[C@H](c3ccccc3)OC(=O)[C@H]1[C@@H]2C(N)=O"
## Output -0.617

* * *

Target: Albumin (Bos taurus) (UniProt P02769)
Sequence (P02769 whole entry, looked up): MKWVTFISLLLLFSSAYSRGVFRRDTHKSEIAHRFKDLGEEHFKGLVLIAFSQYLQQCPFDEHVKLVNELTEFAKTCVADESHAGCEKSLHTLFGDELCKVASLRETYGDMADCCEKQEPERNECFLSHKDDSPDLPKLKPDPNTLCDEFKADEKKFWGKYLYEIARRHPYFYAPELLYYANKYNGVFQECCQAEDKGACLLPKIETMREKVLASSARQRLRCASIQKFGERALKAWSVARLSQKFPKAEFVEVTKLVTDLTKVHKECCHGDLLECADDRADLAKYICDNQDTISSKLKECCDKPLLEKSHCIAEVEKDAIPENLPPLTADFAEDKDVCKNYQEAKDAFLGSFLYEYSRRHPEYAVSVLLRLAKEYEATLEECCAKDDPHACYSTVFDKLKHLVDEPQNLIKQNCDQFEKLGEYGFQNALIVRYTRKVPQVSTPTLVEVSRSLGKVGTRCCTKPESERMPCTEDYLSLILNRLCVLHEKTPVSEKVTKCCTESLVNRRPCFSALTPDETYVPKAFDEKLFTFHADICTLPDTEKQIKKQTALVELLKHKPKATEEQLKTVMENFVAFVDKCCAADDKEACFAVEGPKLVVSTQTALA
Assay: compounds binding labelled BSA control protein – biochemical, small-molecule microarray, Alexa647 label, 635/667 nm fluorescence, artefact control for SMM control protein annotation, profiling panel (AID 1118);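 also: score merges 667 nm emission intensity and signal-to-noise per printed compound spot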
Settings: BSA-A647 binding, fluorescence 635 nm, higher = more signal
Examples of compounds with documented composite z-score follow.
Answer with a number only.

As a guide, the following entries are already answered.
# compound, composite z-score
rows = [
    ("C=CCOC(=O)[C@@H]1[C@H]2C(=O)O[C@H](c3ccccc3)[C@H](c3ccccc3)N2[C@H](c2ccc(OCCOC(=O)[C@@H]3C[C@@H]4C(=O)N[C@@H](CCCCNC(C)=O)C(=O)N4[C@@H]3c3ccc(O)cc3)cc2)[C@@]12C(=O)Nc1ccc(I)cc12", -0.427),
    ("C=CCOC(=O)[C@H]1[C@@H]2C(=O)O[C@@H](c3ccccc3)[C@@H](c3ccccc3)N2[C@@H](c2ccc(OCCOC(=O)[C@H]3C[C@H]4C(=O)N[C@@H](CCCCN(C)C)C(=O)N4[C@H]3c3ccc(O)cc3)cc2)[C@]12C(=O)Nc1ccccc12", -0.144),
    ("CCOC(=O)C[C@H]1[C@H](OC(=O)c2cc3ccccc3oc2=O)[C@@H](NC(=O)c2ccc3ccccc3n2)c2cc(OCCCO)ccc2N1C(=O)c1ccc2ccccc2n1", -0.407),
    ("C=CC[C@]1(C(=O)N2CCOCC2)N=C(c2ccc(OCCCO)cc2)O[C@H]1c1ccccc1CN=[N+]=[N-]", 0.971),
    ("CCCCC(O)C1C=CC2C(=O)N(Cc3ccccc3)C(=O)C2N1n1cnnc1 (stereo unspecified)", -0.0045),
]

## Input Record lookup: for Albumin (Bos taurus) (UniProt P02769), what composite z-score belongs to C=CCC(OC(C)=O)[C@@H]1[C@@H](N(Cc2ccc(-c3ccccc3)cc2)C(=O)Cc2ccc(OC)cc2)c2cc(OCCCO)ccc2N1C(=O)c1ccc(-c2ccccc2)cc1 (stereo partly specified) ?
## Output -0.146

* * *

Molecular target: NADPH oxidase 4 (Homo sapiens) (UniProt Q9NPH5)
Sequence (Q9NPH5 whole entry, looked up): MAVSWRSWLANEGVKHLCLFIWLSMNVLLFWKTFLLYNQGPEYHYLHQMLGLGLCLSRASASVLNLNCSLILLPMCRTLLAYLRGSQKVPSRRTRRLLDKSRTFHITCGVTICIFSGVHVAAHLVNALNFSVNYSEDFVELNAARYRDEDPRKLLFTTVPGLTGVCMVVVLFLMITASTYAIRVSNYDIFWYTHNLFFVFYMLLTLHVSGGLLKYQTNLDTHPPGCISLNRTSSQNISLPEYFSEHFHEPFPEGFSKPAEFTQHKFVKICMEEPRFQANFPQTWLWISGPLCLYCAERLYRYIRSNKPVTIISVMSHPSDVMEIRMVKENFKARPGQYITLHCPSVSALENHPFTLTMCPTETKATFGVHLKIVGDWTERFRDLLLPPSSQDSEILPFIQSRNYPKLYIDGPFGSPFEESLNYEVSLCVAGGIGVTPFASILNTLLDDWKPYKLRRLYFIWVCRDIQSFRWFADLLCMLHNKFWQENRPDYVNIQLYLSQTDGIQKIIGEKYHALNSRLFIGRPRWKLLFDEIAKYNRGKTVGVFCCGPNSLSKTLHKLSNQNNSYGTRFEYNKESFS
Experiment: compounds shifting NOX4 Amplex Red fluorescence – cell-based, HEK293-NOX4, tetracycline-induced, NOX inhibitor project, primary screen (AID 1160)
Details: HEK293-NOX4, Amplex Red H2O2 fluorescence, 45 min; higher = more signal, called active from +8 up or from −8 down
Classify by measured z-score: label 1 if it is equal to or exceeds 0.5, label 0 if it is smaller.

# compound, label_value
rows = [
    ("Cc1ccc(S[C@]2(C(=O)NCCN3CCOCC3)CC(=O)N(C3Cc4ccccc4C3)[C@@H]2c2ccc(CO)cc2)cc1", "label 0"),
]

## Input z-score >= 0.5 for "COC(=O)[C@H]1N=C(c2ccc(OCCCO)cc2)O[C@H]1c1ccccc1CN=[N+]=[N-]" ?
## Output label 1

## Input Next entry: "C=CC[C@]1(C(=O)N2CCOCC2)N=C(c2ccc(OCCCO)cc2)O[C@H]1c1ccccc1CN=[N+]=[N-]"
## Output label 0

## Input Next entry: "C=C(COC)/C(=C/C[C@@H](OC(=O)c1ccncc1)c1cccc(OCCO)c1)c1cc(C(=O)OC)ccc1OC"
## Output label 0

## Input Next entry: C=CCC(OC(C)=O)[C@@H]1[C@@H](N(Cc2cccc3ccccc23)C(=O)c2ccc(C)cc2)c2cc(OCCCO)ccc2N1C(=O)c1ccc2ccccc2c1 (stereo partly drawn)
## Output label 1

## Input Next entry: "COc1cc2c(cc1OC)CN(C(=O)[C@@H]1[C@H]3C(=O)O[C@H](c4ccccc4)[C@H](c4ccccc4)N3[C@H](c3ccc(O)cc3)[C@@]13C(=O)Nc1ccc(C#CCNC(N)=O)cc13)CC2"
## Output label 0

## Input Next entry: "COc1ccc(C#Cc2ccc3c(c2)[C@]2(C(=O)N3)[C@H](C(N)=O)[C@H]3C(=O)O[C@H](c4ccccc4)[C@H](c4ccccc4)N3[C@@H]2c2ccc(O)cc2)cc1"
## Output label 0

* * *

Experiment: compounds binding Alexa647 anti-His antibody – biochemical, small-molecule microarray, 635 nm fluorescence, artefact control for SMM control protein annotation, primary screen (AID 1128);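 also: score merges feature fluorescence with signal-to-noise for each printed compound spot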
Conditions: higher = more signal
Hi all, reminder that labels come from composite z-score, split as A: < 0.3; B: ≥ 0.3 and < 0.9; C: ≥ 0.9

As a guide, the following entries are already answered.
# molecule, label_value
measured = [
    ("O=C1N(Cc2ccccc2)c2ccccc2[C@H]2OC(c3ccc(OCCCO)cc3)=N[C@@]12CCS(=O)(=O)c1ccccc1", "C"),
    ("CC(=O)NCCCC[C@@H]1NC(=O)[C@@H]2C[C@H](C(=O)NCCCC[N+](C)(C)C)[C@H](c3cccc(OCCO)c3)N2C1=O", "C"),
    ("COc1ccc([Si](C)(C)[C@@H]2[C@@H](CC(=O)N(CCO)Cc3ccccc3)O[C@]3(C(=O)N(Cc4ccc(N5CCOC5=O)cc4)c4ccccc43)[C@H]2C)cc1", "C"),
    ("CC(=O)NCCCC[C@@H]1NC(=O)[C@H]2C[C@@H](C(=O)NCCCCCN)[C@@H](c3cccc(OCCO)c3)N2C1=O", "C"),
]

## Input Just checking, what class would you give "CCC[C@@H]1C[C@@]1(CCC)[C@@H](NC(=O)c1cccs1)c1ccc(Cl)cc1" here?
## Output A

## Input Next entry: CC[C@@H]1[C@@H]2C3C(=O)N(CC)C(=O)C3CC(=O)[C@@H]2[C@H](c2ccc(C)cc2)N1S(=O)(=O)c1ccc(C)cc1 (some centres undefined)
## Output A
